All figures here come from patent US8492427B2.

Biological target: constitutively activated human mutant MEK1 (Homo sapiens, UniProt Q02750)
Sequence (Q02750 whole entry S218D/S222D, form open): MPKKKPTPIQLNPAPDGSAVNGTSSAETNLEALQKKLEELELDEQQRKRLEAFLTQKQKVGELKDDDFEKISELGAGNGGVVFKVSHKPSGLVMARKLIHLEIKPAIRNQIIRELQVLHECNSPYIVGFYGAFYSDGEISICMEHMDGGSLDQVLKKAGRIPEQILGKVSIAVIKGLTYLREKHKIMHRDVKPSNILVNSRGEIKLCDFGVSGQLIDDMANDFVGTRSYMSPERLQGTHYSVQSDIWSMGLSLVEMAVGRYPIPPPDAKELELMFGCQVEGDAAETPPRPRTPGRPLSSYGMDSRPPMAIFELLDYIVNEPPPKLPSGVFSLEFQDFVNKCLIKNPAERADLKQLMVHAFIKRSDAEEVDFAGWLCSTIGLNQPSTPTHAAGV
Assay: MEK Assay (MEK Activity Assay)
Conditions: 15 nM MEK1, 50 μM ATP, GST-ERK1 substrate, 30 minutes, HTRF; read-out: IC50 in the MEK activity assay of Example 1
pIC50: −log10 of the molar value.
measured metric: pIC50

Exam item: // pIC50 lookup, key: "O=C1NCc2cc(C(=O)NOCCO)c(Nc3ccc(I)cc3F)cc21"
Marked response: > 7.00
